Target: human TG2 (Homo sapiens)
Sequence (P21980 1-687): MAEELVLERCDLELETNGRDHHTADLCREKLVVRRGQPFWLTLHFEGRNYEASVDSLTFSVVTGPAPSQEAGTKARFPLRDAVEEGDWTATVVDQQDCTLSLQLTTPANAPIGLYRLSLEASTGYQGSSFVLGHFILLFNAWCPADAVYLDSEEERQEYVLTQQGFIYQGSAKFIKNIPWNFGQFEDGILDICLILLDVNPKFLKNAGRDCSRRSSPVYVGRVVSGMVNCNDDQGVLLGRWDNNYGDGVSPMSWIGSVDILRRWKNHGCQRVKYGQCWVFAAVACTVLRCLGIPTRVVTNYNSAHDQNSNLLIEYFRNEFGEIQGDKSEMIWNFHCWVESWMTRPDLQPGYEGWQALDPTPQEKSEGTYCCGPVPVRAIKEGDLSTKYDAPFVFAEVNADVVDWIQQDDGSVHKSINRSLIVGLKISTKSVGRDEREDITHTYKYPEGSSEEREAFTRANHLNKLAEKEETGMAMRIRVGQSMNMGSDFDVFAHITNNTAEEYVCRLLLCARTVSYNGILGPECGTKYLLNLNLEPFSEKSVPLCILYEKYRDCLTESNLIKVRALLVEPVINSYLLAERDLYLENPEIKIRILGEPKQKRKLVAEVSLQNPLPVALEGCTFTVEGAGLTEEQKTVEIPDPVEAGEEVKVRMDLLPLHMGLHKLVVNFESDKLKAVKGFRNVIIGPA
Experiment: fluorescent screening assay for human TG2
Type: biochemical
Conditions: Table 7; 20 nM TG2, 37° C.; read-out: IC50
So I've got a bunch of compounds here, and I need their IC50 values.

Examples with their reported IC50 follow.
| entry smiles | IC50 |
| --- | --- |
| C=CC(=O)NCCCC[C@H](NC(=O)OCc1ccccc1)C(=O)N(C)C | 1 to 100 µM |
| C=CC(=O)NCCCC[C@H](NC(=O)OCc1ccc(C)cc1)C(=O)O | 1 to 100 µM |
| C=CC(=O)NCCCC[C@H](NC(=O)OCc1ccc(CCCC)cc1)C(=O)O | 1 to 100 µM |
| C=CC(=O)NCCCC[C@H](NC(=O)OCc1ccccc1)C(=O)N1CCN(C(=O)C2CCOCC2)CC1 | 0.1 to 1 µM |
| C=CC(=O)NCCCC[C@H](NC(=O)OCc1ccccc1)C(=O)N1CCN(C)CC1 | 0.1 to 1 µM |
| C=CC(=O)NCCCC[C@H](NC(=O)OCc1ccc(C(C)(C)C)cc1)C(=O)O | 1 to 100 µM |

Parameter requested: IC50. Apply to each item below.
1. C=CC(=O)NCCCC[C@H](NC(=O)OCc1cccc2ccccc12)C(=O)O
2. C=CC(=O)NCCCC[C@H](NC(=O)OCc1ccccc1)C(=O)N1CCN(c2cc(Cl)ccc2OC)CC1
3. C=CC(=O)NCCCC[C@H](NC(=O)OCc1c(F)cccc1F)C(=O)O

["1 to 100 µM", "< 0.1 µM", "1 to 100 µM"]

----------
assay: Plasma stability (human); format: in vitro ADME; settings: pooled plasma, human plasma, 1 μM, 37° C., read-out: Human Plasma T1/2
So I've got a bunch of compounds here, and I need their half-life at 1 μM values.

| compound | measure name | val |
| --- | --- | --- |
| C=CC(=O)NCCCC[C@H](NC(=O)OCc1ccccc1)C(=O)N1CCN(c2ccccc2Cl)CC1 [compound 1] | half-life at 1 μM | > 24 h |

Could you now consider this next compound?
Would you kindly share the measured half-life at 1 μM for C=CC(=O)NCCCC[C@H](NC(=O)Cc1ccccc1)C(=O)N1CCN(c2cccc(C)n2)CC1 [compound 2] ?
> 8 h
